Test system: MCF7
Experiment: In Vitro cytotoxicity against human cancer cell line, MCF-7
Format: functional
REPORTED_PROPERTY: Cytotoxicity

Examples from the recorded data:
COMPOUND	TARGET_OF_ASSAY	Cytotoxicity
O=C1C(Oc2ccccc2)[C@H](c2ccccc2)N1c1cc2ccccc2c2ccccc12 (some centres not stated)	MCF7	>20 µM
CN1CCN(C(=O)CCC(=O)Nc2cc3c4ccccc4ccc3c3ccccc23)CC1	MCF7	40 µM
O=C1C(Oc2ccccc2)[C@H](c2ccccc2)N1c1cc2c3ccccc3ccc2c2ccccc12 (some centres not stated)	MCF7	>20 µM
CC(=O)OC1C(=O)N(c2cccc3cc4c(cc23)Cc2cc3ccccc3cc2-4)[C@H]1c1ccccc1 (some centres not stated)	MCF7	>20 µM
CC(=O)OC1C(=O)N(c2cccc3ccccc23)[C@@H]1c1ccccc1 (some centres not stated)	MCF7	>20 µM
CC(=O)OC1C(=O)N(c2cc3c4ccccc4ccc3c3ccccc23)[C@H]1c1ccccn1 (some centres not stated)	MCF7	14.93 µM

Field: next compound
stdin: Reported Cytotoxicity, compound O=C1c2ccccc2C(=O)N1C1C(=O)N(c2cc3c4ccccc4ccc3c3ccccc23)[C@H]1c1ccccc1 (some centres not stated) : ____
stdout: >20 µM

====

Test system: MCF7
Assay: In Vitro cytotoxicity against human cancer cell line, MCF-7
Type: functional
Cytotoxicity values, listed per item

stdin: Lab note: need Cytotoxicity with MCF7 for entry CC(=O)OC1C(=O)N(c2ccccc2)C1c1cc2c3ccccc3ccc2c2ccccc12 (stereo not drawn) , please look it up.
stdout: >20 µM

stdin: Queued: CC(=O)OC1C(=O)N(c2cccc3cc4ccccc4cc23)[C@@H]1c1ccccc1 (stereo partly drawn)
stdout: >20 µM

stdin: // next record CC(=O)OC1C(=O)N(c2ccc3ccc4cccc5ccc2c3c45)[C@H]1c1ccccc1 (stereo partly drawn)
stdout: >20 µM
